- Tested on: HepG2
- Protocol notes: GSK_TCMDC: Percent inhibition of human HepG2 cell line. Test compounds present at 10uM.
- Format: functional
Rule: Inhibition of 20% or more gives true (1); anything lower gives false (0).

Example entries and their recorded answers appear below.
For this molecule, is measured Inhibition 20% or higher? CN(C)CCCOc1cccc(CCNCc2cccc(Oc3ccc(Cl)cc3)c2)c1.O=C(O)C(F)(F)F
true (1)

For this molecule, is measured Inhibition 20% or higher? CCOc1ccc(-c2nonc2NC(=O)c2ccccc2F)cc1OCC
false (0)

For this molecule, is measured Inhibition 20% or higher? O=C(O)C(F)(F)F.c1cncc(CCNCc2cccc(-c3csc(-c4nc5ccccc5[nH]4)c3)c2)c1
true (1)

For this molecule, is measured Inhibition 20% or higher? Fc1cccc(C=NNc2ccnc3cc(Cl)ccc23)c1
false (0)

For this molecule, is measured Inhibition 20% or higher? O=C(N[C@H]1CCN(Cc2ccc(OCCN3CCNCC3)c(Cl)c2)C1)c1ccc(Cl)c(Cl)c1.O=C(O)C(F)(F)F
true (1)

New cases:
For this molecule, is measured Inhibition 20% or higher? N#Cc1cnc(Nc2ccc(Oc3ccccc3)cc2)nc1Nc1cccc(S(N)(=O)=O)c1
true (1)

For this molecule, is measured Inhibition 20% or higher? Cc1ccc(Nc2nc(C)cc(N3CCN(CCc4ccccc4)CC3)n2)cc1
false (0)

For this molecule, is measured Inhibition 20% or higher? CN1CCC(COc2ccc(CN3CCC(NC(=O)c4cccc(Cl)c4)CC3)cc2)CC1.O=C(O)C(F)(F)F
false (0)

For this molecule, is measured Inhibition 20% or higher? O=C(CC1NC(=O)c2ccccc21)Nc1ccc(-c2cccc(-c3nc4cc(C(F)(F)F)ccc4[nH]3)c2)cc1 (centres undefined)
true (1)
